Target: T1, human VEGF (hVEGF) (human, UniProt P15692 181-395)
T1 construct: also called VEGF-A
T1 sequence: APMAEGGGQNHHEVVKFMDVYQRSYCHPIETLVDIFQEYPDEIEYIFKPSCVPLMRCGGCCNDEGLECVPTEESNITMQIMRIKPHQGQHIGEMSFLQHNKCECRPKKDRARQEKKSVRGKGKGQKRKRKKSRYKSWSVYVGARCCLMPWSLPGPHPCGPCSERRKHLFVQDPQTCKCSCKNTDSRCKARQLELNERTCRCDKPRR
Test: BIACORE SPR on immobilised hVEGF; label beside the mutation on the structure of the VEGF-bound G6 Fab (PDB 2FJG)
Kindly supply the reported fold change in binding affinity (Kd) compared to G6.31 values for the records listed here.
Answers are plain numbers, in x.

Take a look at these entries with their results.
INSERT INTO measurements (binder, test_result) VALUES
  ('G6.31 LC-Q89T (Fab, V domains shown, Fab) VH: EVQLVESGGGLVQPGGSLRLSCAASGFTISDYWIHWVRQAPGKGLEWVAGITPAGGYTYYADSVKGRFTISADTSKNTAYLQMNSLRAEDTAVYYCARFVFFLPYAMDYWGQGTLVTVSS VL: DIQMTQSPSSLSASVGDRVTITCRASQDVSTAVAWYQQKPGKAPKLLIYSASFLYSGVPSRFSGSGSGTDFTLTISSLQPEDFATYYCTQGYGNPFTFGQGTKVEIK', 4),
  ('G6.31 LC-D28R (Fab, V domains shown, Fab) VH: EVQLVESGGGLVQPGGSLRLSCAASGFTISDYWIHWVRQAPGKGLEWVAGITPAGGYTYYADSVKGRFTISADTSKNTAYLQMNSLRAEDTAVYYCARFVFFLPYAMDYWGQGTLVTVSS VL: DIQMTQSPSSLSASVGDRVTITCRASQRVSTAVAWYQQKPGKAPKLLIYSASFLYSGVPSRFSGSGSGTDFTLTISSLQPEDFATYYCQQGYGNPFTFGQGTKVEIK', 3);

fold change in binding affinity (Kd) compared to G6.31 reported for this binder G6.31 LC-F83A (Fab, V domains shown, Fab) VH: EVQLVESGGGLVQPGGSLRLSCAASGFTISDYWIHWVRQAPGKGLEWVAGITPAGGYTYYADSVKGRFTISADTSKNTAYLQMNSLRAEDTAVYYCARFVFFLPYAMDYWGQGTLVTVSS VL: DIQMTQSPSSLSASVGDRVTITCRASQDVSTAVAWYQQKPGKAPKLLIYSASFLYSGVPSRFSGSGSGTDFTLTISSLQPEDAATYYCQQGYGNPFTFGQGTKVEIK : 3
